Data credit: ChEMBL document CHEMBL1144284

Each entry below carries its recorded Ki.
biological target: UniProtKB P35348; assay: Binding constant measured against Alpha-1A adrenergic receptor in human prostate; ++:moderately active; assay type: tissue-based, Prostate gland
Sequence (P35348 whole entry): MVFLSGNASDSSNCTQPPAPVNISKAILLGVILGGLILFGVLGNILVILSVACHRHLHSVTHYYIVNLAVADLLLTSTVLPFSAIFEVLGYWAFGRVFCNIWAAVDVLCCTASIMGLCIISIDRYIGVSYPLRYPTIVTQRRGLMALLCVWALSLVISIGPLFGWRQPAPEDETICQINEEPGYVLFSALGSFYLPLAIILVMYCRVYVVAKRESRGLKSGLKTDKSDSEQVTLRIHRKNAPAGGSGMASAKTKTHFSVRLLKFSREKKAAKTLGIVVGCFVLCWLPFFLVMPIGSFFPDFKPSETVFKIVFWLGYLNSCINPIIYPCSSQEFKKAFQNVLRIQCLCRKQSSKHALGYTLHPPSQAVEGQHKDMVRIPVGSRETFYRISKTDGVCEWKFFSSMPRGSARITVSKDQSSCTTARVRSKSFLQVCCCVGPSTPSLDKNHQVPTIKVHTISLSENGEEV
Respond with the bare value in nM.

{"columns": ["compound", "target", "Ki / nM"],
 "data": [
  ["COc1cccc(OC)c1OCCNCC1Oc2ccccc2OC1c1ccc(C)cc1 (stereo not given)", "UniProtKB P35348", 4.1],
  ["O=C(CCCN1CCC2(CC1)C(=O)NCN2c1ccccc1)c1ccc(F)cc1", "UniProtKB P35348", 7.9],
  ["CC(C)Oc1ccccc1N1CCN(CCNC(=O)CN2CCCCCC2=O)CC1", "UniProtKB P35348", 22],
  ["N=C(Nc1ccccc1)N1CCN(/C=C2/N=C(c3cccc4ccccc34)OC2=O)CC1", "UniProtKB P35348", 41]
]}

// next entry
Ask: Item: C[C@@]1(O)C(=O)N(CCCN2CCN(c3ccc(F)cc3OCC(F)(F)F)CC2)C(=O)N[C@@H]1O Test system: UniProtKB P35348 Read-out: Ki Value: ?
Result: 5
